Attribution: PubChem BioAssay (NCI)

test system: M14 melanoma; test: NCI-60 one-dose screen, 48 h (100 = growth as untreated, 0 = no growth, -100 = all killed); conditions: 10 µM unless noted
This is part of a sample that, as a whole, favours compounds with a hit. Of some 83,000 tested, about 20% had one in any assay. Calls of active or inactive are those of the source. Rule for the calls: active = growth percent below 10; inactive = the rest.
Here the recorded growth is given for each entry.

Illustrative cases are given below, each with its answer.
- MOLECULE: "OC1(c2ccc(Cl)c(C(F)(F)F)c2)CCN(CCCC(c2ccc(F)cc2)c2ccc(F)cc2)CC1"
  growth: "-84.8% (active)"
- MOLECULE: "N#Cc1c(Nc2ccccc2)nn2cc(-c3nc4ccccc4s3)c(N)nc12"
  growth: "58.8% (inactive)"
- MOLECULE: "CC(O)(CO)c1ccccc1 (stereo not given)"
  growth: "94.6% (inactive)"
- MOLECULE: "CCNC(=O)c1[nH]cc(-c2ccc(OC)cc2)c1-c1cc(OC)c(OC)c(OC)c1"
  growth: "51.4% (inactive)"
- MOLECULE: "COc1cc(C2CC(c3cccc(Nc4ccncc4)c3)=NN2c2ccc(Cl)cc2)cc(OC)c1OC (stereo not given)"
  growth: "101% (inactive)"
- MOLECULE: "COc1ccccc1Nc1cc(O)c2c(=O)cc(-c3ccccc3)oc2c1"
  growth: "20.8% (inactive)"

Here is the next item to consider.
Entry Cc1cc2cc3cc(C)c(N)cc3[n+](C)c2cc1N has what growth?
18.7% (inactive)

---

tested on: CAKI-1 renal; assay: NCI-60 one-dose screen, 48 h; details: 10 µM unless noted
Compounds without any hit were thinned out: in the full panel of roughly 83,000, 20% have a hit. Activity calls are given as the source filed them. How the source made its calls: active means growth percent below 10; inactive means the rest.
API: response.call in True for active, False for inactive

Please review the following examples before continuing.
- COMPOUND: "COc1cc(/C=N/NC(=O)c2ccccc2Nc2cccc(C(F)(F)F)c2)ccc1O"
  LABEL: "False"
- COMPOUND: "Cc1ccc(C2CC(c3cccc(Nc4ccncc4)c3)=NN2c2ccc(Cl)cc2)cc1 (centres undefined)"
  LABEL: "True"
- COMPOUND: "CN1CCN(C(=O)OCc2nc3c(N4CCOCC4)nc(-c4ccccc4)nc3n2C)CC1"
  LABEL: "True"

Query compound follows.
Hey, what did the test say about Brc1ccc(C2CC(c3cccc(Nc4ccncc4)c3)=NN2c2ccccc2)cc1 (centres undefined) ?
False

---

system: UO-31 renal; test: NCI-60 one-dose screen, 48 h; details: 10 µM unless noted
The panel holds about 83,000 compounds, 20% with a hit somewhere; the sample as a whole holds those more often. Activity calls are given as the source filed them. The calls were made as follows: active = growth percent below 10; inactive = the rest.
API: response.call in active, inactive

- COMPOUND: "COc1ccc(C(=O)/C=C/c2ccc(OCc3ccccc3)c(OC)c2)cc1OC"
  LABEL: "inactive"
- COMPOUND: "COc1ccc(C(=O)c2cc3c(N)c(C(=O)Nc4cccc(OC)c4)sc3nc2C)cc1"
  LABEL: "inactive"
- COMPOUND: "[2H]C1([2H])NC([2H])([2H])C([2H])([2H])N(c2ccc(Nc3ncc4cc(C(=O)N(C)C)n(C5CCCC5)c4n3)nc2)C1([2H])[2H]"
  LABEL: "inactive"
- COMPOUND: "CC(c1ccccc1)n1ccnc1CO (configuration not stated)"
  LABEL: "inactive"

Hey, what did the test say about COc1ccc(-c2nc(SCC(C)C)nc(N/N=C(/C)c3ccc(OC)c(OC)c3)c2C#N)cc1 ?
inactive

Hey, what did the test say about COc1cnccc1-c1nc2ccc3[nH]ncc3c2c2c1CCCC2 ?
inactive

---

system: RPMI-8226 leukemia; test: NCI-60 one-dose screen, 48 h (100 = growth as untreated, 0 = no growth, -100 = all killed); details: 10 µM unless noted
The panel holds about 83,000 compounds, 20% with a hit somewhere; the sample as a whole holds those more often. Calls of active or inactive are those of the source. The calls were made as follows: active = growth percent below 10; inactive = the rest.
QUANTITY: growth

- SMILES STR: "CCCC/C(=N\\N=C(N)N)c1ccc(F)cc1"
  growth: "36% (inactive)"

Entry COc1ccc(/C(=C\c2ccccc2)C(=O)O)cc1OC has what growth?
102% (inactive)

Entry COc1cc2c(cc1[N+](=O)[O-])-c1ccc([N+](=O)[O-])cc1/C2=N/NC(N)=S has what growth?
66.1% (inactive)

Entry O=C1/C(=C\c2cn(Cc3ccccc3)c3ccc(Br)cc23)c2ccccc2N1c1c(Cl)cccc1Cl has what growth?
104% (inactive)

Entry COc1ccc(-c2nc3sccn3c2/C=C/C(=O)c2cc(OC)c(OC)c(OC)c2)cc1 has what growth?
-39.1% (active)

---

system: HS 578T breast; assay: NCI-60 one-dose screen, 48 h; settings: 10 µM unless noted
This is part of a sample that, as a whole, favours compounds with a hit. Of some 83,000 tested, about 20% had one in any assay. Active and inactive are the calls of the source. How the source made its calls: active means growth percent below 10; inactive means the rest.
API: response.call in true (1) = active, false (0) = inactive

- COMPOUND: "CCCCCN1C=C/C(=C\\C(=O)N(C)c2cccc3ccccc23)c2ccccc21"
  LABEL: "false (0)"
- COMPOUND: "CCCCCCCCOc1ccc(/C=N/Nc2cc(C)nc3ccc(Cl)cc23)cc1"
  LABEL: "false (0)"

Hey, what did the test say about C#CCNC(=O)[C@H](Cc1ccccc1)NC(=O)[C@]12CC[C@@H](C(=C)C)[C@@H]1[C@H]1CC[C@@H]3[C@@]4(C)Cc5c([nH]c6ccccc56)C(C)(C)[C@@H]4CC[C@@]3(C)[C@]1(C)CC2 ?
false (0)

Hey, what did the test say about COc1ccccc1/C=N/NC1=NC2C(N1)N(C)C(=O)N2C (stereo not drawn) ?
false (0)

Hey, what did the test say about O=C(Nc1nc2ccc(S(=O)(=O)Nc3ccc(C4(C(F)(F)F)CC4)cc3)cc2[nH]1)c1cnccn1 ?
false (0)

Hey, what did the test say about CC1=NNC(=O)C1CCC(=O)N/N=C(\C)c1ccc2ccccc2c1 (stereo not drawn) ?
false (0)

Hey, what did the test say about C#Cc1cccc(NC(=O)Nc2ccc(NC(=O)CCl)cc2)c1 ?
true (1)

Hey, what did the test say about CCN(CC)CCSCCCNc1c(C)cnc2cc(Cl)ccc12 ?
false (0)

Hey, what did the test say about CCCCCCOc1ccc(C(=N)N(CCCC)CCCC)c2ccccc12 ?
true (1)

Hey, what did the test say about Cn1c(=O)c2[nH]c(CCCc3nc4c([nH]3)c(=O)n(C)c(=O)n4C)nc2n(C)c1=O ?
false (0)

Hey, what did the test say about CCCCCCc1nc2nc(Cl)c(Cl)nc2[nH]1 ?
false (0)

Hey, what did the test say about Nc1nc(N)nc(NCc2ccccc2)n1 ?
false (0)

---

Test system: OVCAR-8 ovarian
Test: NCI-60 one-dose screen, 48 h (100 = growth as untreated, 0 = no growth, -100 = all killed)
Conditions: 10 µM unless noted
Protocol: Growth inhibition of the OVCAR-8 human tumor cell line is measured as a screen for anti-cancer activity. Cells are grown in 96 well plates and exposed to the test compound for 48 hours. Compounds are tested at a single concentration, which is 10^-5 M for most compounds. The reported endpoint is percent growth (GI% or GIPRCNT), where numbers from 0 - 100% represent growth inhibition, and numbers from -100% - 0 represent cell death. For example, a value of 40 represents 60% growth inhibition. […]
Compounds without any hit were thinned out: in the full panel of roughly 83,000, 20% have a hit.
QUANTITY: growth (%)
Report as a plain number; the unit % is understood.

Illustrative cases are given below, each with its answer.
- SMILES STR: "Cc1ccccc1-c1cc(Cc2ccc(F)cc2)c(=O)[nH]n1"
  TARGET SYSTEM: "OVCAR-8 ovarian"
  DISPLAY UNIT: "%"
  QUANTITATIVE RESULT: 90.4
- SMILES STR: "COc1cc2ncnc(Nc3ccc(C(=O)/C=C/c4ccc(C(F)(F)F)cc4F)cc3)c2cc1OC"
  TARGET SYSTEM: "OVCAR-8 ovarian"
  DISPLAY UNIT: "%"
  QUANTITATIVE RESULT: 101
- SMILES STR: "COc1ccc(-c2nc(N=Nc3c(O)[nH]c4ccccc34)nc(N3CCOCC3)c2C#N)cc1"
  TARGET SYSTEM: "OVCAR-8 ovarian"
  DISPLAY UNIT: "%"
  QUANTITATIVE RESULT: 44.2
- SMILES STR: "CC(C)(C)CC(C)(C)Nc1c(-c2ccc(C(F)(F)F)cc2)nc2cnccn12"
  TARGET SYSTEM: "OVCAR-8 ovarian"
  DISPLAY UNIT: "%"
  QUANTITATIVE RESULT: 89.2
- SMILES STR: "COc1ccccc1/C=C1\\COc2ccc(-c3ccccc3)cc2C1=O"
  TARGET SYSTEM: "OVCAR-8 ovarian"
  DISPLAY UNIT: "%"
  QUANTITATIVE RESULT: 36.1

Entry CCOC(=O)C1=C(C)NC(C)=C(C(=O)OCC)C1c1cc(Br)c(O)c(OC)c1 has what growth?
25.2

Entry NC(=O)C1(N2CCCCC2)CCN(CCCC(=O)c2ccc(F)cc2)CC1 has what growth?
51.1
